biological target: T1, huNav1.7α+β1 (human, UniProt Q15858 1-1988; Q07699 19-218); test: binding FACS, HEKa/β1 cells
T1 construct: also called huNav1.7-beta1; HEKa/β1
observable: EC50 (nM)
Kindly provide the numeric value in nM only, without the unit symbol.

Query: Query (binder): F010300536 (VHH, vs F0103265A11: N58T) VHH: EVQLVESGGGLVQPGGSLRLSCAASGMLFNANTQGWYRQAPGKQRELVAFIFSGGYTTYVDSVKGRFTISRDNAKRTMYLQMNSLKPEDSAIYYCSLSRYLGQGTLVTVSS ; field requested: EC50
Reply: 9

Query: Can you handle F010301346 (VHH, vs 387G05: D58G) VHH: EVQLVESGGGLVQAGGSLRLSCDASGRILRIGYMRWHRQGAGKQREFVARITDDSATGYADSVKGRFTISRDNAKNTVYLQMNNLNPEDTAVYYCEALVTASVRGGSIHSGTYWGRGTLVTVSS next?
Reply: 1.6

Query: Can you handle F010301314 (VHH, vs 387G05: D23A) VHH: EVQLVESGGGLVQAGGSLRLSCAASGRILRIGYMRWHRQGAGKQREFVARITDDSATDYADSVKGRFTISRDNAKNTVYLQMNNLNPEDTAVYYCEALVTASVRGGSIHSGTYWGRGTLVTVSS next?
Reply: 1.8
